- system: T1, wild type monomeric full-length HIV-1 YU-2 gp120 (HIV-1 YU-2, UniProt P35961 32-498)
- T1 construct: domain: gp120; also called gp120YU-2; gp120 YU-2
- measurement.description: SPR competition: gp120 YU-2 with increasing peptide over immobilised soluble CD4; competitor CD4
Bridges are numbered along the chain shown (N, C = ends). Where no end group is shown, it is not given here. [ ]: non-standard residue; d: D form. triazolo‑Pro(3,5-diMe-benzyl) = triazolo-proline with two meta-methyl phenyl methyl on the triazole; triazolo‑Pro(2-Me-benzyl) = triazolo-proline with ortho-methyl phenyl methyl on the triazole; triazolo‑Pro(4-tBu-phenyl) = triazolo-proline with para-tert-butylphenyl on the triazole; triazolo‑Pro(benzyl) = triazolo-proline with phenyl methyl moiety on the triazole; triazolo‑Pro(biphenyl) = triazolo-proline with biphenyl group on the triazole
Catalogue of binders with associated IC50
Please make sure the unit comes right after the number.

I'd like to know its IC50. The binder in question is DNI[triazolo‑Pro(4-tBu-phenyl)]WK-NH2 (lactam 1-6) [cPT 22]
150 nM

I'd like to know its IC50. The binder in question is DNI[triazolo‑Pro(biphenyl)]WK-NH2 (lactam 1-6) [cPT 23]
680 nM

I'd like to know its IC50. The binder in question is DNI[triazolo‑Pro(2-Me-benzyl)]WK-NH2 (lactam 1-6) [cPT 25]
132 nM

I'd like to know its IC50. The binder in question is DNIPWK-NH2 (lactam 1-6; not fully specified (residue 4); also: further groups not given here) [cPT 20]
956 nM

I'd like to know its IC50. The binder in question is DNI[triazolo‑Pro(benzyl)]WK-NH2 (lactam 1-6) [cPT 19]
257 nM

I'd like to know its IC50. The binder in question is DNI[triazolo‑Pro(3,5-diMe-benzyl)]WK-NH2 (lactam 1-6) [cPT 28]
926 nM
